Molecular target: human ether-à-go-go-related gene (hERG) potassium channel (human, UniProt Q12809);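 note: peak tail current of the secondary pulse compared with the same well before compound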
Sequence (Q12809 whole entry, looked up): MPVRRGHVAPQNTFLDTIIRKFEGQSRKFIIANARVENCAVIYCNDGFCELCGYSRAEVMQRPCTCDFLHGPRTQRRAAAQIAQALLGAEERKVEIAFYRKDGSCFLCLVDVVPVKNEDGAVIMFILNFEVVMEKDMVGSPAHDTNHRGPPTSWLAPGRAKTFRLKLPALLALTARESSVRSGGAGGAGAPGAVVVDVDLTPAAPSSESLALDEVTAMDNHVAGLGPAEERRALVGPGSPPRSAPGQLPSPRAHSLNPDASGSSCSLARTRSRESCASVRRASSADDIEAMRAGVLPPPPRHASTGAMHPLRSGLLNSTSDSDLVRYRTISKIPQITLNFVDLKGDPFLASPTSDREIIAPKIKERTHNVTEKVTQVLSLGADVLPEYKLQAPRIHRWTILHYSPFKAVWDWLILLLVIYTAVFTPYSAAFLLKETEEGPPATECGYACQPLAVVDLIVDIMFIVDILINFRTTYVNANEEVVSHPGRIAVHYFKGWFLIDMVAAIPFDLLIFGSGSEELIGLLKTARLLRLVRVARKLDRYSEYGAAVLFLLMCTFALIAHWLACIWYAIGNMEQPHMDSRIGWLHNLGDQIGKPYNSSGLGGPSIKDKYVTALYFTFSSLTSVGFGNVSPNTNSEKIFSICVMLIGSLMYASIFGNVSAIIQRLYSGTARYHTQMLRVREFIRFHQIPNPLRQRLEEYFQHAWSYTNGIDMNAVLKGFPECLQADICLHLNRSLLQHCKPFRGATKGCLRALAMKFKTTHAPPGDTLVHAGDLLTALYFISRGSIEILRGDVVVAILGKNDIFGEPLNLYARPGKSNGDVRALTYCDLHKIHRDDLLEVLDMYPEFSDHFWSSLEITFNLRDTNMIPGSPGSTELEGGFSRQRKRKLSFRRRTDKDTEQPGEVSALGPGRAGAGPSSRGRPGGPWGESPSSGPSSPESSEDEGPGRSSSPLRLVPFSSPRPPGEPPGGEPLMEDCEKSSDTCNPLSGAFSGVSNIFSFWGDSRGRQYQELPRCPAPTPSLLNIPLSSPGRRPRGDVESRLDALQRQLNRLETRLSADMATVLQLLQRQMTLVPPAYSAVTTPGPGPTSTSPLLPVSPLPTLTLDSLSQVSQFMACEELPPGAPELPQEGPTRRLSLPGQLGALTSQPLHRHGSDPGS
Assay: primary screen, population patch clamp on CHO cells stably expressing hERG; higher = less effect of the substance
Hit rate of the full screen: of about 310,000 compounds, about 14,000 (4.5%) showed an effect of 50% or more. Effects have a minus sign here. Only a selection was taken, and strong results are over-represented in it overall.
observed property: hERG current change (%, negative = inhibition) at 10uM

| compound | reported measurement |
| --- | --- |
| S=C(NCc1ccccc1)N1CCN(C(=S)NCc2ccccc2)CC1 | 12.9% |
| COc1cc(OC)c(C(=O)NCCCn2ccnc2)cc1OC.Cl | 13% |
| CCCS(=O)(=O)N1CCC(C(=O)N2CCC(Cc3ccccc3)CC2)CC1 | -63% |
| O=C1CC(C(=O)N2CCc3ccccc32)CN1c1ccccc1 (centres unmarked) | -6.98% |
| CN(C)CCNS(=O)(=O)c1ccc(N2CCN(c3ccc(F)cc3)CC2)c([N+](=O)[O-])c1 | -62.4% |
| COc1ccc(CNC(=S)NCc2ccc(F)cc2)cc1OC | -0.604% |
| CCOC(=O)c1ccc(NC(=S)NCCCN2CCCCC2)cc1 | -42% |
| O=S(=O)(c1ccc(F)cc1)N1CCN(C(=S)NCc2ccccc2)CC1 | 13.8% |
| CC(C)OC(=O)c1ccc(OC(=O)c2cccnc2)cc1 | 12.5% |
| O=S(=O)(c1ccccc1)N1CCN(C(=S)NCc2ccccc2)CC1 | -50.3% |
| C=CCNC(=O)C(C)Sc1ccc(Cl)cc1 (centres unmarked) | 0.00948% |
| CN1CCN(/N=C/c2cccc(Cl)c2Cl)CC1.Cl | 6.09% |
| CC(C)Oc1ccc(CNC(=O)Oc2ccccc2)cc1 | 8.19% |
| Cc1cc([N+](=O)[O-])nn1CC(=O)Nc1sc2c(c1C(N)=O)CCCC2 | 7.62% |
| CCS(=O)(=O)N1CCN(C(=O)c2cccc3ccccc23)CC1 | 12.8% |
| Cc1ccccc1NC(=O)CN1C(=O)NC(C)(CCc2ccccc2)C1=O (centres unmarked) | 22.2% |
| O=C(c1ccccc1)N1CCN(c2ccc(NCc3ccc4c(c3)OCO4)cc2)CC1 | -12.2% |
| O=C(COC(=O)c1cc([N+](=O)[O-])ccc1Cl)NC1CCCC1 | -26.8% |
| S=C(NCc1ccccc1)N1CCCCC1 | -1.03% |
| O=S(=O)(c1cccc(F)c1)N1CCN(C(=S)NCc2ccccc2)CC1 | -0.89% |
| CCC(C(=O)NCc1ccco1)n1nc(C)c2c(C)n(-c3ccccc3)nc2c1=O (centres unmarked) | -8.91% |
| O=C1CC(C(=O)N2CCCc3ccccc32)CN1c1ccc(F)cc1 (centres unmarked) | -22.2% |
| O=C(COc1ccc(Cl)cc1)NC(=S)Nc1ccccc1N1CCOCC1 | 17.4% |
| COc1ccc(CN(CCC(c2ccco2)C(C)C)C(C)=O)cc1OC (centres unmarked) | 0.825% |
| CCCCC1(CCCC)C(=O)NC(=Nc2cccc(C)c2)NC1=O | 0.0469% |
| CCOC(=O)c1ccc(NC(=S)NCCCN2CCN(C3CCCCC3)CC2)cc1 | -53.7% |
